# TESTED TARGET: T1, rabbit LIGHT protein, FLAG-tagged extracellular domain (rabbit)
# T1 chain: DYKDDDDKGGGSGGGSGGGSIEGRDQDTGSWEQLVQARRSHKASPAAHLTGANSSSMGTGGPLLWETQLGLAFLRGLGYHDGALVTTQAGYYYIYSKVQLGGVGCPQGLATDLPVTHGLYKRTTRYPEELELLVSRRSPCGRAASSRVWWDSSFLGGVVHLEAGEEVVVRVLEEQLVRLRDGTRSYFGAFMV
# MEASUREMENT DESCRIPTION: SPR ProteOn, mAb captured on anti-human IgG, 25 C
MEASURED ENDPOINT: binding result

[[record]]
binder = "13H04 in human IgG4(PE) format (antibody, V domains shown) VH: QVQLVQSGAEVKKPGASVKVSCKASGYTFTSYGISWVRQAPGQGLEWMGWISAHNANTNYAQKLQGRVTMTTDTSTSTAYMELRSLRSDDTAMYYCARLYRNWFDPWGQGTLVTVSS VL: QSALTQPASVSGSPGQSITISCTGTSSDVGGYNYVSWYQQHPGKAPKLMIYDVSKRPSGVSNRFSGSKSGNTASLTISGLQAEDEADYYCCSYAGSSTLLFGGGTKLTVL"
measured_endpoint = "binding result"
observed_measurement = "binds"

